Let's look at some IC50 data for Cathepsin S (Homo sapiens) that I collected from the literature.

- COMPOUND: "Cn1cc(-c2ccc(S(=O)(=O)[C@@H]3C[C@@H](C(=O)NC4(C#N)CC4)[C@H](C(=O)N4CC(F)(F)C4)C3)c(C(F)(F)F)c2)cn1"
  COMPARISON OPERATOR: "="
  IC50, nM: 0.2
- COMPOUND: "CO[C@@H]1C[C@H](S(=O)(=O)c2ccc(N3CC(F)(F)C3)cc2C(F)(F)F)C[C@H]1C(=O)NC1(C#N)CC1 (racemic)"
  COMPARISON OPERATOR: "="
  IC50, nM: 1.4
- COMPOUND: "Cc1nc(C)c(-c2ccc(S(=O)(=O)[C@@H]3C[C@@H](C(=O)NC4(C#N)CC4)N(C(=O)C4(C(F)(F)F)CC4)C3)c(C)c2)s1"
  COMPARISON OPERATOR: "="
  IC50, nM: 0.614
- COMPOUND: "N#CCNC(=O)[C@@H]1C[C@@H](S(=O)(=O)c2ccc(F)c(Cl)c2)C[C@H]1C(=O)N1CCOCC1"
  COMPARISON OPERATOR: "="
  IC50, nM: 0.7
- COMPOUND: "CC(C)(C)NC(=O)[C@@H]1C[C@H](S(=O)(=O)c2ccccc2)C[C@H]1C(=O)NC1(C#N)CC1"
  COMPARISON OPERATOR: "="
  IC50, nM: 25.5
- COMPOUND: "CO[C@@H]1C[C@H](S(=O)(=O)c2ccc(-c3ccc(S(N)(=O)=O)cc3)cc2C(F)(F)F)C[C@H]1C(=O)NC1(C#N)CC1 (racemic)"
  COMPARISON OPERATOR: "="
  IC50, nM: 0.6
- COMPOUND: "N#CCNC(=O)[C@@H]1C[C@@H](S(=O)(=O)c2ccccc2)C[C@H]1C(=O)N1CCOCC1"
  COMPARISON OPERATOR: "="
  IC50, nM: 0.6
- COMPOUND: "N#CC1(NC(=O)[C@@H]2C[C@@H](S(=O)(=O)c3ccccc3)C[C@H]2C(=O)N2CCC(O)CC2)CC1"
  COMPARISON OPERATOR: "="
  IC50, nM: 1
- COMPOUND: "N#CC1(NC(=O)[C@@H]2C[C@@H](S(=O)(=O)c3ccccc3Cl)C[C@H]2COc2ccc(Cl)cc2)CC1 (single isomer, unassigned)"
  COMPARISON OPERATOR: "="
  IC50, nM: 3.4
- COMPOUND: "N#CC1(NC(=O)C2(NC(=O)c3cc4ccc(-c5ccc(C(O)CO)cc5)cc4o3)CCC(F)(F)CC2)CC1 (stereo not shown)"
  COMPARISON OPERATOR: "="
  IC50, nM: 620
- COMPOUND: "N#CC1(NC(=O)C2(NC(=O)c3cc4ccc(-c5ccc(S(=O)(=O)N6CCOCC6)cc5)cc4o3)CCC(F)(F)CC2)CC1"
  COMPARISON OPERATOR: ">"
  IC50, nM: 10000
- COMPOUND: "N#CC1(NC(=O)[C@@H]2C[C@@H](S(=O)(=O)c3ccccc3)C[C@H]2C(=O)N2CC(O)C2)CC1"
  COMPARISON OPERATOR: "="
  IC50, nM: 7.4
- COMPOUND: "Cc1cccc(S(=O)(=O)[C@@H]2C[C@@H](C(=O)NC3(C#N)CC3)N(C(=O)C3(c4ncc(Cl)cc4F)CC3)C2)n1"
  COMPARISON OPERATOR: "="
  IC50, nM: 2.8

###

Dear all, I have gathered published pIC50 values for Cathepsin S (Homo sapiens, UniProt P25774); the list follows.
pIC50: −log10 of the molar value.

- MOLECULE: "Cc1ccc(CO[C@@H]2C[C@H](S(=O)(=O)c3ccccc3Cl)C[C@H]2C(=O)NC2(C#N)CC2)cc1 (racemic)"
  COMPARISON OPERATOR: "="
  pIC50: 8.38
- MOLECULE: "CCC[C@H](NC(=O)[C@@H]1C[C@@H](S(=O)(=O)c2ccccc2Cl)CN1C(=O)C1(c2ncc(Cl)cc2F)CC1)C(=O)C(=O)NC1CC1"
  COMPARISON OPERATOR: "="
  pIC50: 9.26
- MOLECULE: "N#CC1(NC(=O)[C@@H]2C[C@@H](Sc3ccc(Cl)cn3)CN2C(=O)C2(c3ncc(Cl)cc3F)CC2)CC1"
  COMPARISON OPERATOR: "="
  pIC50: 6.58
- MOLECULE: "Cn1ccc2c(-c3cnc(OCC4CCN(C(=O)C5CCNCC5)CC4)c(C(F)(F)F)c3)nc(C#N)nc21"
  COMPARISON OPERATOR: "="
  pIC50: 8.57
- MOLECULE: "Cc1cc(-c2ccc(S(=O)(=O)[C@H]3C[C@@H](OC4CCOCC4)[C@H](C(=O)NC4(C#N)CC4)C3)c(C(F)(F)F)c2)ccn1 (racemic)"
  COMPARISON OPERATOR: "="
  pIC50: 9.77
- MOLECULE: "N#CC1(NC(=O)[C@@H]2C[C@@H](S(=O)(=O)c3ccccc3)C[C@H]2C(=O)N2CCOCC2)CCC1"
  COMPARISON OPERATOR: "="
  pIC50: 8.40
- MOLECULE: "N#CC1(NC(=O)[C@@H]2C[C@@H](S(=O)(=O)c3ccccc3Cl)C[C@H]2OCc2c(F)cc(Cl)cc2F)CC1 (racemic)"
  COMPARISON OPERATOR: "="
  pIC50: 8.21
- MOLECULE: "CO[C@@H]1C[C@H](S(=O)(=O)c2ccc(N3CCOCC3)cc2C(F)(F)F)C[C@H]1C(=O)NC1(C#N)CC1 (racemic)"
  COMPARISON OPERATOR: "="
  pIC50: 8.83
- MOLECULE: "N#CC1(NC(=O)[C@@H]2C[C@@H](S(=O)(=O)c3ccc(OCC(F)(F)F)cc3Cl)C[C@H]2C(=O)N2CC(F)(F)C2)CC1"
  COMPARISON OPERATOR: "="
  pIC50: 8.85
- MOLECULE: "CCO[C@@H]1C[C@H](S(=O)(=O)c2ccc(Br)cc2C(F)(F)F)C[C@H]1C(=O)NC1(C#N)CC1 (racemic)"
  COMPARISON OPERATOR: "="
  pIC50: 8.96
- MOLECULE: "COC[C@@H]1C[C@@H](NC(=O)c2ncc(-c3cc(C#N)ccc3OC(F)(F)F)o2)CN1C#N"
  COMPARISON OPERATOR: "<"
  pIC50: 4.52
- MOLECULE: "N#CC1(NC(=O)[C@@H]2CC(S(=O)(=O)c3ccccc3Cl)C[C@H]2COc2ccc(O)nn2)CC1 (mixture of isomers)"
  COMPARISON OPERATOR: "="
  pIC50: 7.67
- MOLECULE: "N#CC1(NC(=O)[C@@H]2C[C@@H](S(=O)(=O)c3ccccc3)C[C@H]2C(=O)N2CCS(=O)(=O)CC2)CC1"
  COMPARISON OPERATOR: "="
  pIC50: 8.37

###

From various publications: IC50 for UniProt:P25774.

- COMPOUND: "CCCCNC(=O)C(=O)[C@H](CCC)NC(=O)[C@@H]1C[C@@H](S(=O)(=O)c2ccccc2Cl)CN1C(=O)C1(c2ncc(Cl)cc2F)CC1"
  COMPARISON OPERATOR: "="
  IC50 [nM]: 2.93
- COMPOUND: "CO[C@@H]1C[C@H](S(=O)(=O)c2ccc(-c3cncc(Cl)c3)cc2C(F)(F)F)C[C@H]1C(=O)NC1(C#N)CC1 (racemic)"
  COMPARISON OPERATOR: "="
  IC50 [nM]: 0.4
- COMPOUND: "CO[C@@H]1C[C@H](S(=O)(=O)c2ccc(-c3cnn(CC4(C)COC4)c3)cc2C(F)(F)F)C[C@H]1C(=O)NC1(C#N)CC1 (racemic)"
  COMPARISON OPERATOR: "="
  IC50 [nM]: 2.85
- COMPOUND: "CC[C@H](NC(=O)[C@@H]1C[C@@H](S(=O)(=O)c2ccccc2Cl)CN1C(=O)C1(c2ccc(Cl)cc2)CC1)C(=O)C(=O)NCC(C)C"
  COMPARISON OPERATOR: "="
  IC50 [nM]: 0.876
- COMPOUND: "CC(C)[C@@H]1NC(=O)/C=C/[C@@H](NC(=O)CNC(=O)[C@H](Cc2ccc(O)cc2)NC(=O)OC(C)(C)C)COC(=O)[C@H](Cc2ccc(O)cc2)NC1=O"
  COMPARISON OPERATOR: "<"
  IC50 [nM]: 3000
- COMPOUND: "Cc1ncccc1-c1ccc(S(=O)(=O)[C@@H]2C[C@@H](C(=O)NC3(C#N)CC3)N(C(=O)C3(c4ncc(Cl)cc4Cl)CC3)C2)c(Cl)c1"
  COMPARISON OPERATOR: "="
  IC50 [nM]: 0.779
- COMPOUND: "N#CC1(NC(=O)[C@@H]2C[C@@H](S(=O)(=O)c3ccc(F)cc3Cl)C[C@H]2C(=O)N2CCC(F)(F)C2)CC1"
  COMPARISON OPERATOR: "="
  IC50 [nM]: 2.15
- COMPOUND: "CO[C@@H]1C[C@H](S(=O)(=O)c2ccc(-c3cncc(F)c3)cc2C(F)(F)F)C[C@H]1C(=O)NC1(C#N)CC1 (racemic)"
  COMPARISON OPERATOR: "="
  IC50 [nM]: 0.7
- COMPOUND: "N#CC1(NC(=O)[C@@H]2C[C@@H](S(=O)(=O)c3ccc(Br)cc3C(F)(F)F)C[C@H]2OC2CCOCC2)CC1 (racemic)"
  COMPARISON OPERATOR: "="
  IC50 [nM]: 1.23
- COMPOUND: "N#CC1(NC(=O)[C@@H]2C[C@@H](S(=O)(=O)c3ccc(-n4cncn4)cc3Cl)CN2C(=O)C2(C(F)(F)F)CC2)CC1"
  COMPARISON OPERATOR: "="
  IC50 [nM]: 0.686
- COMPOUND: "N#CC1(NC(=O)[C@@H]2C[C@@H](S(=O)(=O)c3ccccc3)C[C@H]2C(=O)N2CC3(COC3)C2)CC1"
  COMPARISON OPERATOR: "="
  IC50 [nM]: 3
